Entry source: ChEMBL document CHEMBL5360615

As a worked illustration, we turn to Ki data collected for D(3) dopamine receptor (Homo sapiens, UniProt P35462).
Just the number please, in nM, no unit attached.

// worked examples, Ki included
Problem: Identify the measured Ki of `CCc1cc(Cl)c(OC)c(N2CCN(C[C@@H]3C[C@@H](O)CN3CCC(C(=O)N(C)C)(c3ccccc3)c3ccccc3)CC2)c1` for D(3) dopamine receptor (Homo sapiens, UniProt P35462).
Solution: 111

Problem: Identify the measured Ki of CCC1(CC)CC(OCCCN2CCN(c3cccc(Cl)c3Cl)CC2)(c2ccccn2)CCO1 (stereo not drawn) for D(3) dopamine receptor (Homo sapiens, UniProt P35462).
Solution: 21.7

Problem: Identify the measured Ki of FC(F)(F)c1cccc(N2CCN(CCC3(c4ccccn4)CCOC4(CCCC4)C3)CC2)n1 (stereo not drawn) for D(3) dopamine receptor (Homo sapiens, UniProt P35462).
Solution: 734

Problem: Identify the measured Ki of `CN(C)C(=O)C(CCN1C[C@H](O)C[C@H]1CN1CCN(c2cccc(C(F)(F)F)n2)CC1)(c1ccccc1)c1ccccc1` for D(3) dopamine receptor (Homo sapiens, UniProt P35462).
Solution: 2700

Problem: Identify the measured Ki of CN(C)C(=O)C(CCN1CCC(CCN2CCN(c3cccc(Cl)c3Cl)CC2)C1)(c1ccccc1)c1ccccc1 (stereo not drawn) for D(3) dopamine receptor (Homo sapiens, UniProt P35462).
Solution: 20.2

Problem: Identify the measured Ki of CC1CCC(CN2CCN(c3cccc(Cl)c3Cl)CC2)CN1CCC(C(=O)N(C)C)(c1ccccc1)c1ccccc1 (stereo not drawn) for D(3) dopamine receptor (Homo sapiens, UniProt P35462).
Solution: 309

More entries:
Problem: Identify the measured Ki of `COc1ccsc1CNCC[C@@]1(c2ccccn2)CCOC2(CCCC2)C1` for D(3) dopamine receptor (Homo sapiens, UniProt P35462).
Solution: 6860

Problem: Identify the measured Ki of `CN(C)C(=O)C(CCN1C[C@H](O)C[C@H]1CN1CCN(c2cccc(Cl)c2Cl)CC1)(c1ccccc1)c1ccccc1` for D(3) dopamine receptor (Homo sapiens, UniProt P35462).
Solution: 247
